test system: SF-268 CNS; test: NCI tumour cell line growth inhibition, 48 h
recorded-metric: TGI

1) COc1c(OC)c(OC)c(C(=O)/C=C/c2ccccc2)c(OC)c1OC; 22.1 µM
2) N=c1ccn2c(n1)OC1C(O)C(CO)OC12 (configuration not stated); > 619 µM
3) CC(C)=CCc1c(O)ccc2ccc(=O)oc12; > 100 µM
4) COc1ccc(-c2c(C#N)c(O)n(NS(=O)(=O)c3ccc(C)cc3)c(=O)c2C#N)cc1; > 100 µM
5) CC(C)(C)c1cc(C(CO)OCCOCCO)cc(C(C)(C)C)c1O (configuration not stated); > 100 µM
6) Cc1cn2c(/C=C3\C(=O)Nc4ccc(O)cc43)c(-c3ccc(Cl)cc3)nc2s1; 54.5 µM
7) CC(=O)OC1(C#N)CC2OC1C1C2N=NN1C(=O)OC(C)(C)C (configuration not stated); > 100 µM
8) Cc1ccsc1/C=N/Nc1ccc2ccccc2n1; > 100 µM
9) Cc1nc2ccccc2nc1-c1ccc(N=[N+]([O-])c2ccc(-c3nc4ccccc4nc3C)cc2)cc1; > 100 µM
10) CCN(CC)C(=S)SS(=O)(=O)c1ccc(F)cc1; > 100 µM
11) N#Cc1c(-c2ccc(F)cc2)c(-c2ccc(F)cc2)nn(CCO)c1=O; > 100 µM
12) CC12CCC3C(CCC4=CC(O)CCC43C=O)C1(O)CCC2c1ccc(=O)oc1 (configuration not stated); 0.0154 µM
13) CCC1C2C=CC(CC2)N1S(=O)(=O)c1ccc(C)cc1 (configuration not stated); 67.3 µM
14) CCCC(O)C(NC(=O)CCl)C(=O)O (configuration not stated); > 100 µM
15) COc1ccncc1C#Cc1cncc(C(=O)Nc2ccc(CN3CCN(C)CC3)c(C(F)(F)F)c2)c1; 66.2 µM
16) Cc1ccc(S(=O)(=O)N/N=C/c2oc(-c3ccncc3)c(-c3ccncc3)c2[N+](=O)[O-])cc1; > 100 µM
17) O=C1CC(C[C@H](O)C2CCCCC2O)CC(=O)N1Cc1ccccc1 (some centres not stated); > 100 µM
18) O=C1NN=C2C=C(c3ccc(Cl)cc3)CC(c3cccc(Cl)c3)C12 (configuration not stated); > 100 µM
19) Cn1c(=O)c2c(no[n+]2[O-])c2ccccc21; 59.2 µM
20) CC(=O)Nc1ccc2cc(C)c(=O)[nH]c2n1; > 100 µM
21) CC(/C=N\NC(=S)N1CCCCC1)=N/NC(=S)N1CCCCC1; 14.6 µM
22) O=c1c2ccccc2sc2cccc(NCCCN3CCN(CCCNc4cccc5sc6ccccc6c(=O)c45)CC3)c12; > 100 µM

====

test system: PC-3 prostate; assay: NCI tumour cell line growth inhibition, 48 h
Reported TGI by item:
recorded-metric: TGI

1. COc1ccncc1C#Cc1cncc(C(=O)Nc2ccc(CN3CCN(C)CC3)c(C(F)(F)F)c2)c1; > 100 µM
2. COc1cc(-c2nn(-c3cccc(NC(=O)Nc4ccc(Cl)c(Cl)c4)c3)cc2-c2ccncc2)ccc1Cl; 2.83 µM
3. COc1ccc(-c2c(C#N)c(O)n(NS(=O)(=O)c3ccc(C)cc3)c(=O)c2C#N)cc1; > 100 µM
4. Cc1ccc(Cl)cc1Nc1nc(C(F)(F)F)ccc1C(=O)N1CCN(c2cccc(Cl)c2)CC1; > 100 µM
5. NC12Oc3cc(O)cc(O)c3C1(c1ccc(Cl)cc1)c1c(O)cc(O)cc1O2 (stereo not given); > 100 µM

====

tested on: DU-145 prostate; assay: NCI tumour cell line growth inhibition, 48 h
Reported TGI by item:
recorded-metric: TGI

1) COc1ccc(CCN=C2OCc3ccccc32)cc1OC; > 100 µM
2) CCOC(=O)c1ccc(C(=O)/C(C#N)=C2\CCCN2C)[nH]1; > 100 µM
3) S=c1[nH]n2c(COc3cccc(OCc4nnc5sc(=S)[nH]n45)c3)nnc2s1; > 100 µM
4) CC(=C\c1ccccc1)/C=C(\C#N)C(N)=O; > 10 µM
5) NS(=O)(=O)c1ccc(N(/C=C/C(=O)C(F)(F)F)CC(=O)c2ccc(Cl)cc2)cc1; > 100 µM
6) Cn1c(N)c2c3c(sc2nc1=O)CCCC3; > 75 µM
7) CCN(CC)c1nc(-c2ccc(Cl)cc2Cl)nc2ccccc12; > 58.9 µM
8) CC1(C)OC2C(O)CN3CCS[C@H]3C2O1 (some centres not stated); > 100 µM
9) O=C(O)c1cccnc1; > 100 µM
10) O=c1cc(-c2ccccc2)[nH]c2c(S)cccc12; > 100 µM
11) CC(C)(C)NC(=O)N1N=C(c2ccccc2)C1c1ccccc1 (configuration not stated); > 100 µM
12) NC12Oc3cc(O)cc(O)c3C1(c1ccc(Cl)cc1)c1c(O)cc(O)cc1O2 (configuration not stated); > 100 µM

====

tested on: HT29 colon; experiment: NCI tumour cell line growth inhibition, 48 h
recorded-metric: GI50

1) CCN(CC)CCOc1ccc(/C=C2\CC3C4CC=C5C[C@@H](O)CC[C@]5(C)C4CC[C@]3(C)C2=O)cc1OC (stereo partly specified); 2.29 µM
2) N#C/C=C(\c1ccc([N+](=O)[O-])cc1)n1nnc2cc(Cl)c(Cl)cc21; 2.05 µM
3) Cn1cnc([N+](=O)[O-])c1S(=O)(=O)Oc1ccccc1; 3.14 µM
4) COc1cc(C2c3cc4c(cc3C(O)C(CO)C2CO)OCO4)cc(OC)c1OC (stereo unspecified); 0.422 µM
5) C=CCc1cccc(/C=N/NC(=O)CN2CCN(Cc3ccccc3)CC2)c1O; 3.24 µM
6) Cc1ccc(Cl)cc1Nc1nc(C(F)(F)F)ccc1C(=O)N1CCN(c2cccc(Cl)c2)CC1; > 100 µM
7) CC12CCC3C(CCC4=CC(O)CCC43C=O)C1(O)CCC2c1ccc(=O)oc1 (stereo unspecified); 0.0667 µM
8) O=c1cc2oc3cc(O)c(O)cc3c(-c3ccccc3O)c-2cc1O; 44.4 µM
9) C=CCCCCCCCCCCC1(O)C=CC2=[N+](CCCCCN=C(N)N)CCCN21 (stereo unspecified); 3.87 µM
10) NS(=O)(=O)c1ccc(N(/C=C/C(=O)C(F)(F)F)CC(=O)c2ccc(Cl)cc2)cc1; 35.6 µM
11) CCN(CC)c1nc(-c2ccc(Cl)cc2Cl)nc2ccccc12; 37.6 µM

====

Reported TGI by item:
test system: UACC-257 melanoma; test: NCI tumour cell line growth inhibition, 48 h
recorded-metric: TGI

1) COc1ccc2oc(-c3cccnc3)cc(=O)c2c1; > 100 µM
2) CCOC(=O)C(C)(C)Oc1ccc2c(C)c(-c3ccc(Cl)cc3)c(=O)oc2c1; > 100 µM
3) N=c1ccn2c(n1)OC1C(O)C(CO)OC12 (centres undefined); > 1000 µM
4) O=C1C[C@H]2[C@@H](O1)[C@@H](O)CN1C(=O)c3ccccc3[C@H]21; > 100 µM

====

system: SW-620 colon; assay: NCI tumour cell line growth inhibition, 48 h
recorded-metric: TGI

1. CC1=CC(=O)[C@@H](O)[C@]2(C)[C@H]3[C@@]4(O)OC[C@]35[C@H]([C@@H](C)[C@H]4O)[C@@H](O)C(=O)O[C@@H]5C[C@@H]12; 6.78 µM
2. COc1ccc(C(OCC2OC(n3cc(C)c(=O)[nH]c3=O)CC2n2cc(Cn3cc(Br)c(=O)[nH]c3=O)nn2)(c2ccccc2)c2ccccc2)cc1 (stereo not drawn); > 100 µM
3. COC(=O)[C@]1(C)CCCC2(C)C1CC[C@H]1C=C(C)[C@H]3CCC12C3 (stereo partly drawn); > 100 µM
4. C1CSCCSCCS1; > 100 µM
5. Cc1csc(Nc2nc(-c3cccc(Br)c3)nc(C(Cl)(Cl)Cl)n2)n1; > 100 µM
6. CCN(CC)C(=S)SS(=O)(=O)c1ccc(F)cc1; 53.7 µM
7. Cc1c(Cl)cccc1N1C(=O)C(Cl)=C(Cl)C1=O; > 100 µM
8. CC(C)=CCc1c(O)ccc2ccc(=O)oc12; > 100 µM

====

test system: HCC-2998 colon; test: NCI tumour cell line growth inhibition, 48 h
Reported TGI by item:
recorded-metric: TGI

1) Cc1ccc(C(=O)N/N=C(\N=Nc2ccccc2[N+](=O)[O-])c2ccc(N(C)C)cc2)cc1; > 100 µM
2) Cc1ccc(S(=O)(=O)N/N=C/c2oc(-c3ccncc3)c(-c3ccncc3)c2[N+](=O)[O-])cc1; > 100 µM
3) CCCC(O)C(NC(=O)CCl)C(=O)O (stereo unspecified); > 100 µM
4) CC1=CC(=O)[C@@H](O)[C@]2(C)[C@H]3[C@@]4(O)OC[C@]35[C@H]([C@@H](C)[C@H]4O)[C@@H](O)C(=O)O[C@@H]5C[C@@H]12; 2.51 µM
5) O=[N+]([O-])c1ccc(-n2nnc(C3=NCCN3)c2-c2ccc(Cl)cc2)cc1; > 100 µM
6) O=C(CCc1cc(O)cc(O)c1)NCCc1cc(O)cc(O)c1; > 100 µM
